Entries annotated with measured recombinant UMI read abundance (log10)
assay: recombinant UMI read abundance after kanamycin selection (control-corrected) (log10(CPM+1)); higher = more efficient recombination; extreme values may be limits of the assay; sequences stand for … in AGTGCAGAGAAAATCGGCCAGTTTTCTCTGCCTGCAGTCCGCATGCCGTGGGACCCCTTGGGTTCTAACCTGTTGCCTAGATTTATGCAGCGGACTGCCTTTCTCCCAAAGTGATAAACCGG…AGGTTGGTTTCACT; site = the 11-nt donor;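 note: IS621 bridge recombinase in Escherichia coli cells against a fixed T5 target plasmid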
Hey, just send me the number, nothing else.

- polymer sequence: "CGTTAAACATGGACCGGTTTTCCCGGTAATCCGTATTTGAG (site CGTTATACTCT)"
  recombinant UMI read abundance (log10): 0.01
- polymer sequence: "AGAAAGGCATGGACCGGTTTTCCCGGTAATCCGTATTTGCG (site AGAAAGGCTCG)"
  recombinant UMI read abundance (log10): 1.64
- polymer sequence: "CGAAATCCATGGACCGGTTTTCCCGGTAATCCGTATTTGTA (site CGGAATCCTAA)"
  recombinant UMI read abundance (log10): 0.00383
- polymer sequence: "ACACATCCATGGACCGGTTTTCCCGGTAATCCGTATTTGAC (site ACACATCCTGC)"
  recombinant UMI read abundance (log10): 0

Field: next sequence
recombinant UMI read abundance (log10) for GGAGGTACATGGACCGGTTTTCCCGGTAATCCGTATTTGAC (site GGAGGTACTGT) ?
1.39
